Assayed system: Caspase-3 (Homo sapiens);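 further: Dose-response selectivity test against caspase-3 for candidate inhibitors of sentrin-specific proteases (SENPs)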
Sequence (P42574 whole entry): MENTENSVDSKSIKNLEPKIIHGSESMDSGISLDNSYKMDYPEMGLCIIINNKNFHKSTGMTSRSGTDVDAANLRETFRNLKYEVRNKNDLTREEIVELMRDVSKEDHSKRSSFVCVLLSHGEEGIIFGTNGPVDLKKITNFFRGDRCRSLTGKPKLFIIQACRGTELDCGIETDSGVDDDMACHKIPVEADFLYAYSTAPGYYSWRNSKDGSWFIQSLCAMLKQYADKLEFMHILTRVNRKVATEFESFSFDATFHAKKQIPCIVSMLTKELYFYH
Assay type: functional
Activity calls are given as the source filed them.
For each entry below, report its IC50 value.

| Molecule | Assayed system | Value measured |
| --- | --- | --- |
| CN(C)C(=O)COC(=O)c1ccccc1Nc1ccc(SC(F)F)cc1 | Caspase-3 (Homo sapiens) | 28.2 µM (active) |
| Cc1cccc(N=Nc2cnc(N)s2)c1 | Caspase-3 (Homo sapiens) | 34.5 µM (active) |
| COc1cccc(/C=C2\CCC(C3CCCC3)C2=O)c1 (configuration not stated) | Caspase-3 (Homo sapiens) | 27.3 µM (active) |
| Cc1cccc(C(=O)Nc2cccc(C(=O)N/N=C/c3ccc4c(c3)OCO4)c2)c1 | Caspase-3 (Homo sapiens) | 13 µM (active) |
| COc1ccc(OC(=O)c2cc3ccccc3o2)cc1 | Caspase-3 (Homo sapiens) | 33 µM (active) |

Quick request: IC50 for each listed item, please.
1. COc1ccc(NC(=O)n2ncc3cc(Cl)ccc32)cc1OC
2. C/C(=N\Cc1ccco1)c1c(C)nn(-c2nc3ccccc3s2)c1O

Result ::
["25.5 µM (active)", "3.72 µM (active)"]

Reference source: ChEMBL document CHEMBL1201862
